conditions: 298.15 K; 101 kPa; Liquid; Capillary tube (Ostwald / Ubbelohde) method
Assign labels as follows, please: Criterion met for viscosity below 3 mPa·s; Criterion not met for viscosity equal to or exceeding 3 mPa·s.

Query: In the record for `CC(C)O` , is viscosity less than 3 mPa·s?
Reply: Criterion met

Query: For `CC(=O)c1ccccc1` then?
Reply: Criterion met

Query: Try this compound too: CCCCCC(C)O (stereo unspecified)
Reply: Criterion not met

Query: Can you handle CCC(C)O (stereo unspecified) next?
Reply: Criterion not met

Query: Note, next up: CCCCC(C)O (stereo unspecified)
Reply: Criterion not met

Now take the following compound into account.
Query: I wonder whether CCCC(C)O (stereo unspecified) has viscosity below 3 mPa·s. Can you tell?
Reply: Criterion not met

====

conditions: 298.15 K; 101 kPa; Liquid
Numbers after ± are expanded uncertainties.
Listing of entries alongside the reported mass density.

Solved cases (5 shown):
Query: Form field: reported mass density of CCCC(C)O (stereo unspecified)
Reply: 805.24 ± 0.56 kg/m3

Query: Then what about the compound `CC(=O)c1ccccc1` ?
Reply: 1023.3 ± 0.37 kg/m3

Query: Can you handle `CC(C)O` next?
Reply: 780.98 ± 0.59 kg/m3

Query: Also need CCCCCC(C)O (stereo unspecified) , thanks.
Reply: 813.33 ± 0.55 kg/m3

Query: Again, but for CCCCC(C)O (stereo unspecified)
Reply: 810.14 ± 0.55 kg/m3

Let us examine a further case.
Query: # mass density lookup, item CCC(C)O (stereo unspecified)
Reply: 802.56 ± 0.56 kg/m3

====

test: refractive index (Na D-line) (dimensionless); settings: 298.15 K; 101.33 kPa; Liquid
The entries below are paired with their reported refractive index.
// no unit, no text: just the number

Query: I'd like to know its refractive index. The compound in question is CCC(C)O (stereo unspecified)
Reply: 1.3946

Query: Similarly, CCCC(C)O (stereo unspecified) ?
Reply: 1.4045

Query: Can you handle `CC(=O)c1ccccc1` next?
Reply: 1.5308

Query: And for CCCCC(C)O (stereo unspecified) ?
Reply: 1.4116

Query: What about this compound? CCCCCC(C)O (stereo unspecified)
Reply: 1.4188

Read the next record carefully.
Query: Requested read-out: refractive index. Entry: `CC(C)O`
Reply: 1.3745
